All figures here come from paper PMC9090415.

Reported % inhibition apPOL 180' values follow for various molecules
- EXPERIMENTAL SYSTEM: P. falciparum apicoplast DNA polymerase (Pf-apPOL) (Plasmodium falciparum, UniProt Q8ILY1)
- Sequence (Q8ILY1 entry or part of it): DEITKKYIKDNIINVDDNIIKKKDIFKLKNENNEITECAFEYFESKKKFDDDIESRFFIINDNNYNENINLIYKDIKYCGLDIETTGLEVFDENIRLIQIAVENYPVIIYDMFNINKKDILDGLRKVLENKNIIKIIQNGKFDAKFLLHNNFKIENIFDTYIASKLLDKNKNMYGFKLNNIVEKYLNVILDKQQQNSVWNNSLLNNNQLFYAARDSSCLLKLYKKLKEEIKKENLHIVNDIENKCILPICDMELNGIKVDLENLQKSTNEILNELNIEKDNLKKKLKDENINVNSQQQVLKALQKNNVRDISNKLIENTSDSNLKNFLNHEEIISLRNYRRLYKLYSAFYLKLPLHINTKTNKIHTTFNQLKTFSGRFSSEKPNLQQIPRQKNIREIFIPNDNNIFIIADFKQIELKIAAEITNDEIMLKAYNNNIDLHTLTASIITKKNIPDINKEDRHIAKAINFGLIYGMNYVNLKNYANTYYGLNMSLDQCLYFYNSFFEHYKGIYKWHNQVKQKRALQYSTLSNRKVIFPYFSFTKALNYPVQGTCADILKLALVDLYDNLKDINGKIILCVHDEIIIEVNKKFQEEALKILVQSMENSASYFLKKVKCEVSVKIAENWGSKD
- TEST PROTOCOL: Fluorescence-based high-throughput DNA polymerase assay (molecular beacon), primary screen and dose-response;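 for % inhibition apPOL 180': test concentration in µM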
- Assay type: biochemical
- CONDITION NOTES: DRC-2, 180', concentration 20
Value expressed in %; do not type the unit.

Would you please look over these solved cases?
O=[N+]([O-])c1cc2c(cc1CN1CCCCCC1)OCO2 [KU0004987] ... 10
O=C(O)c1c(F)c(F)c(-c2c(F)c(F)c(C(=O)O)c(F)c2F)c(F)c1F [KU0008974] ... 30
CN1CC(=Cc2ccco2)C(=O)C(=Cc2ccco2)C1 [Molecule 65, CN1CC(=Cc2ccco2)C(=O)C(=Cc2ccco2)C1] ... 28
CS(=O)(=O)c1cccc(C(=O)Nc2nnc(-c3ccno3)o2)c1 [KU0171319] ... -2.43
O=C(Nc1ncc([N+](=O)[O-])s1)c1ccc2c(c1)C(=O)N(N1C(=O)c3ccccc3C1=O)C2=O [KU0026378] ... 36
CSC(C)C(=O)C=CN(C)C (stereo not shown) [Molecule 71, CSC(C(=O)C=CN(C)C)C] ... 31

Ask: // % inhibition apPOL 180' lookup, key: CN(C)C=CC(=O)c1ccccn1 [Molecule 64, CN(C=CC(=O)c1ccccn1)C]
Reply: 23

Ask: // % inhibition apPOL 180' lookup, key: O=C(NNC(=O)C(F)(F)Sc1ccccc1)c1ccsc1 [Molecule 68, O=C(C(Sc1ccccc1)(F)F)NNC(=O)c1cscc1]
Reply: 12

Ask: // % inhibition apPOL 180' lookup, key: O=C(O)C(=O)Nc1nc(-c2ccc3c(c2)OCCO3)cs1 [Molecule 82, OC(=O)C(=O)Nc1scc(n1)c1ccc2c(c1)OCCO2]
Reply: 18

Ask: // % inhibition apPOL 180' lookup, key: Cc1ncc(CSc2nc(C(C)(C)C)cs2)c(CO)c1O [KU0264007]
Reply: 14

Ask: // % inhibition apPOL 180' lookup, key: O=[N+]([O-])c1cc2c(cc1CN1CCN(c3cccc(Cl)c3)CC1)OCO2 [KU0005610]
Reply: 7

Ask: // % inhibition apPOL 180' lookup, key: CSCCC(C)(O)CNC(=O)C1CC1 (stereo not shown) [KU0200150]
Reply: 18

Ask: // % inhibition apPOL 180' lookup, key: O=C(O)CC1=NN(c2cccc([N+](=O)[O-])c2)C(=O)C1 [KU0100531]
Reply: 23

Ask: // % inhibition apPOL 180' lookup, key: O=C(Nc1nnc(-c2ccno2)o1)c1ccc2c(c1)OCO2 [KU0171343]
Reply: 0.368

Ask: // % inhibition apPOL 180' lookup, key: COc1ccc2c(c1)CCc1c-2nc2ccc(Br)cc2c1C(=O)O [KU0059417]
Reply: 25

Ask: // % inhibition apPOL 180' lookup, key: COc1cc(/C=C2\S/C(=N/C(C)=O)NC2=O)cc(Br)c1OCC(=O)O [KU0057841]
Reply: 14

---

- EXPERIMENTAL SYSTEM: P. falciparum apicoplast DNA polymerase (Pf-apPOL) (Plasmodium falciparum, UniProt Q8ILY1)
- TEST PROTOCOL: Fluorescence-based high-throughput DNA polymerase assay (molecular beacon), primary screen and dose-response
- Type: biochemical
- CONDITION NOTES: DRC-2; read at 40'; concentration 20
MEASUREMENT TYPE: % inhibition Apol 40' 20 (%)
Value expressed in %; do not type the unit.

Cc1nc(C)c2c(n1)N(CC1CCCCC1)C(=O)CC2 ... 39
O=C1CSC2=NC3=C(CCc4ccccc43)C(c3cccs3)N12 (stereo not drawn) ... 39
Cn1nc(-c2nnc(-c3ccccc3F)o2)c2c1CCN(C(=O)c1ccccc1Cl)C2 ... 40
Cn1nc(-c2nc(-c3ccccc3)no2)c2c1CCN(C(=O)Cc1cccs1)C2 ... 39

Ask: Please provide the recorded % inhibition Apol 40' 20 for "O=C(CCc1csc(NC(=O)Nc2ccccc2)n1)Nc1nc2ccccc2s1" , tested on P. falciparum apicoplast DNA polymerase (Pf-apPOL) (Plasmodium falciparum, UniProt Q8ILY1).
Reply: 49

Ask: Please provide the recorded % inhibition Apol 40' 20 for "CC(=O)OCC1=C(C(=O)[O-])N2C(=O)[C@@H](NC(=O)Cc3cccs3)[C@H]2SC1.[Na+]" , tested on P. falciparum apicoplast DNA polymerase (Pf-apPOL) (Plasmodium falciparum, UniProt Q8ILY1).
Reply: 29

Ask: Please provide the recorded % inhibition Apol 40' 20 for "COc1ccccc1CC(=O)N1CCc2c(nc3cc(-c4ccccc4Cl)[nH]n3c2=O)C1" , tested on P. falciparum apicoplast DNA polymerase (Pf-apPOL) (Plasmodium falciparum, UniProt Q8ILY1).
Reply: 56
